Origin of measurements: patent US20200369728A1

- Tested on: SJSA-1 cells
- assayText: Cell lysis by peptidomimetic macrocycles (LDH release)
- Type: cell-based
- details: 50 μM, SJSA-1, 1 h
attributeMeasured: 50 μM % Lysed cells (1 h LDH) (%)

molecule: CC[C@H](C)[C@H](NC(=O)[C@H](C)NC(=O)[C@H](C)NC(=O)[C@]1(C)CCCC=CCCCCCC[C@@](C)(NC(=O)[C@H](Cc2ccccc2)NC(=O)[C@@H](NC(=O)[C@H](CC(C)C)NC(C)=O)[C@@H](C)O)C(=O)N[C@@H](CCC(=O)O)C(=O)N[C@@H](Cc2ccc(O)cc2)C(=O)N[C@@H](Cc2c[nH]c3ccccc23)C(=O)N[C@@H](C)C(=O)N[C@@H](CCC(N)=O)C(=O)N[C@@H](CC(C)C)C(=O)N1)C(=O)N[C@H](C)C(N)=O (single isomer, unassigned)
recordedMeasurement: 2

* * *

- Test system: Caspase 3
- assayText: Caspase 3 detection assay in SJSA1 cells
- Format: cell-based
- details: 3 μM, SJSA1, 48 h, Caspase 3 activation over DMSO-treated cells
Bridge positions count the residues as written; N and C are the ends. Square brackets hold non-standard residues; d marks the D form. Peptide text beside a SMILES is read from it. R8 = C=CCCCCCC[C@@](C)(N)C(=O)O; S5 = C=CCCC[C@](C)(N)C(=O)O

compound: CC(=O)N[C@@H](CC(C)C)C(=O)N[C@H](C(=O)N[C@@H](Cc1ccccc1)C(=O)N[C@]1(C)CCCCCCC=CCCC[C@@](C)(C(=O)N[C@@H](CO)C(=O)N[C@@H](C)C(=O)N[C@@H](CO)C(N)=O)NC(=O)[C@H](CC(C)C)NC(=O)[C@H](CCC(N)=O)NC(=O)[C@H](C)NC(=O)[C@H](Cc2c[nH]c3ccccc23)NC(=O)[C@H](Cc2ccc(O)cc2)NC(=O)[C@H](C)NC1=O)[C@@H](C)O [compound 122] (Ac-LTF[R8]AYWAQL[S5]SAS-NH2; staple 4-11)
caspase 3 μM: 2

* * *

- Tested on: SJSA-1 cells
- assayText: Cell lysis by peptidomimetic macrocycles (LDH release)
- Type: cell-based
- details: 50 μM, SJSA-1, 1 h
Bridge positions count the residues as written; N and C are the ends. Square brackets hold non-standard residues; d marks the D form. Peptide text beside a SMILES is read from it. R8 = C=CCCCCCC[C@@](C)(N)C(=O)O; S5 = C=CCCC[C@](C)(N)C(=O)O
attributeMeasured: 50 μM % Lysed cells (1 h LDH) (%)

molecule: CSCC[C@H](NC(=O)[C@H](C)NC(=O)[C@H](C)NC(=O)[C@]1(C)CCCC=CCCCCCC[C@@](C)(NC(=O)[C@H](Cc2ccccc2)NC(=O)[C@@H](NC(=O)[C@H](CC(C)C)NC(C)=O)[C@@H](C)O)C(=O)N[C@@H](C)C(=O)N[C@@H](Cc2ccc(O)cc2)C(=O)N[C@@H](Cc2c[nH]c3ccccc23)C(=O)N[C@@H](C)C(=O)N[C@@H](C)C(=O)N[C@@H](CC(C)C)C(=O)N1)C(=O)N[C@H](C)C(N)=O [compound 72] (Ac-LTF[R8]AYWAAL[S5]AAM[dA]-NH2; staple 4-11)
attributeMeasured: 50 μM % Lysed cells (1 h LDH)
recordedMeasurement: 3

* * *

- Tested on: SJSA-1 cells
- assayText: Cell lysis by peptidomimetic macrocycles (LDH release)
- Type: cell-based
- details: 50 μM, SJSA-1, 1 h
- Description: SJSA-1 cells were plated out one day in advance in clear flat-bottom plates (Costar, catalog number 353072) at 7500 cells/well with 100 ul/well of growth media, leaving row H columns 10-12 empty for media alone. On the day of the assay, media was exchanged with RPMI 1% FBS media, 90 uL of media per well. […] Cell plates were incubated for 1 hour at 37° C. […] LDH release is measured using the LDH cytotoxicity assay kit from Caymen, catalog #1000882.
Bridge positions count the residues as written; N and C are the ends. Square brackets hold non-standard residues; d marks the D form. Peptide text beside a SMILES is read from it. R8 = C=CCCCCCC[C@@](C)(N)C(=O)O; S5 = C=CCCC[C@](C)(N)C(=O)O
attributeMeasured: 50 μM % Lysed cells (1 h LDH)

compound: CC(=O)N[C@@H](CCC(=O)O)C(=O)N[C@H](C(=O)N[C@@H](Cc1ccccc1)C(=O)N[C@]1(C)CCCCCCC=CCCC[C@@](C)(C(=O)N[C@@H](CO)C(=O)N[C@@H](C)C(=O)N[C@@H](C)C(N)=O)NC(=O)[C@H](CC(C)C)NC(=O)[C@H](CCC(N)=O)NC(=O)[C@H](C)NC(=O)[C@H](Cc2c[nH]c3ccccc23)NC(=O)[C@H](Cc2ccc(O)cc2)NC(=O)[C@H](C(C)C)NC1=O)[C@@H](C)O [compound 125] (Ac-ETF[R8]VYWAQL[S5]SAA-NH2; staple 4-11)
recordedMeasurement: 2%
--
compound: CC(=O)N[C@@H](CCC(=O)O)C(=O)N[C@H](C(=O)N[C@@H](Cc1ccccc1)C(=O)N[C@]1(C)CCCCCCC=CCCC[C@@](C)(C(=O)N[C@@H](CO)C(=O)N[C@H](C(=O)N[C@@H](C)C(N)=O)C(C)C)NC(=O)[C@H](CC(C)C)NC(=O)[C@H](CCC(N)=O)NC(=O)[C@H](C)NC(=O)[C@H](Cc2c[nH]c3ccccc23)NC(=O)[C@H](Cc2ccc(O)cc2)NC(=O)[C@H](C(C)C)NC1=O)[C@@H](C)O [compound 126] (Ac-ETF[R8]VYWAQL[S5]SVA-NH2; staple 4-11)
recordedMeasurement: 1%

* * *

- assayText: Circular dichroism (CD) analysis of alpha-helicity
- Format: physicochemical
- details: benign buffer
Bridge positions count the residues as written; N and C are the ends. Square brackets hold non-standard residues; d marks the D form. Peptide text beside a SMILES is read from it. R8 = C=CCCCCCC[C@@](C)(N)C(=O)O; S5 = C=CCCC[C@](C)(N)C(=O)O
attributeMeasured: % Helix benign compared to 50% TFE parent (CD) (%)

compound: CC(=O)N[C@@H](CC(C)C)C(=O)N[C@H](C(=O)N[C@@H](Cc1ccccc1)C(=O)N[C@]1(C)CCCCCCC=CCCC[C@@](C)(C(=O)N[C@@H](C)C(=O)N[C@@H](C)C(=O)N[C@@H](C)C(=O)N[C@H](C)C(N)=O)NC(=O)[C@H](CC(C)C)NC(=O)[C@H](CCC(N)=O)NC(=O)[C@H](C)NC(=O)[C@H](Cc2c[nH]c3ccccc23)NC(=O)[C@H](Cc2ccc(O)cc2)NC(=O)[C@H](C)NC1=O)[C@@H](C)O (single isomer, unassigned) [compound 230]
recordedMeasurement: 1.5
--
compound: CC(=O)N[C@@H](CC(C)C)C(=O)N[C@H](C(=O)N[C@@H](Cc1ccccc1)C(=O)N[C@]1(C)CCCCCCC=CCCC[C@@](C)(C(=O)N[C@@H](CO)C(=O)N[C@@H](C)C(=O)N[C@@H](Cc2ccccc2)C(N)=O)NC(=O)[C@H](CC(C)C)NC(=O)[C@H](CCC(N)=O)NC(=O)[C@H](C)NC(=O)[C@H](Cc2c[nH]c3ccccc23)NC(=O)[C@H](Cc2ccc(O)cc2)NC(=O)[C@H](C)NC1=O)[C@@H](C)O [compound 7] (Ac-LTF[R8]AYWAQL[S5]SAF-NH2; staple 4-11)
recordedMeasurement: −0.9
--
compound: CC(=O)N[C@@H](CC(C)C)C(=O)N[C@H](C(=O)N[C@@H](Cc1ccccc1)C(=O)N[C@]1(C)CCCCCCC=CCCC[C@@](C)(C(=O)N[C@@H](C)C(=O)N[C@@H](C)C(=O)N[C@@H](C)C(=O)N[C@@H](C)C(=O)N[C@H](C)C(N)=O)NC(=O)[C@H](CC(C)C)NC(=O)[C@H](CCC(N)=O)NC(=O)[C@H](C)NC(=O)[C@H](Cc2c[nH]c3ccccc23)NC(=O)[C@H](Cc2ccc(O)cc2)NC(=O)[C@H](C)NC1=O)[C@@H](C)O [compound 233]
recordedMeasurement: 3.3

* * *

- assayText: Circular dichroism (CD) analysis of alpha-helicity
- Assay type: physicochemical
- details: 222 nm, CD buffer with 50% TFE, 0.05 mg/ml, 4° C.
Bridge positions count the residues as written; N and C are the ends. Square brackets hold non-standard residues; d marks the D form. Peptide text beside a SMILES is read from it. R8 = C=CCCCCCC[C@@](C)(N)C(=O)O; S5 = C=CCCC[C@](C)(N)C(=O)O; Nle = CCCC[C@H](N)C(=O)O
Entries and their Molar Ellipticity 50% TFE (222 in 50% TFE)
attributeMeasured: Molar Ellipticity 50% TFE (222 in 50% TFE)

molecule: CCCC[C@H](NC(=O)[C@H](CCC(N)=O)NC(=O)[C@H](CCC(N)=O)NC(=O)[C@]1(C)CCCC=CCCCCCC[C@@](C)(NC(=O)[C@H](Cc2ccccc2)NC(C)=O)C(=O)N[C@@H](C)C(=O)N[C@@H](Cc2ccc(O)cc2)C(=O)N[C@@H](Cc2c[nH]c3ccccc23)C(=O)N[C@@H]([C@@H](C)O)C(=O)N[C@@H](C)C(=O)N[C@@H](CC(C)C)C(=O)N1)C(=O)N[C@@H](C(N)=O)C(C)C [compound 41] (Ac-F[R8]AYWTAL[S5]QQ[Nle][dV]-NH2; staple 2-9)
recordedMeasurement: −21319.4 deg cm^2 dmol^−1

molecule: CCCC[C@H](NC(=O)[C@H](C)NC(=O)[C@H](C)NC(=O)[C@]1(C)CCC/C=C/CCCCCC[C@@](C)(NC(=O)[C@H](Cc2ccccc2)NC(=O)[C@@H](NC(=O)[C@H](CC(C)C)NC(C)=O)[C@@H](C)O)C(=O)N[C@@H](C)C(=O)N[C@@H](Cc2ccc(O)cc2)C(=O)N[C@@H](Cc2c[nH]c3ccccc23)C(=O)N[C@@H](C)C(=O)N[C@@H](CCC(N)=O)C(=O)N[C@@H](CC(C)C)C(=O)N1)C(=O)N[C@@H](C)C(N)=O
recordedMeasurement: −21509.7 deg cm^2 dmol^−1

molecule: CC(=O)N[C@@H](CC(C)C)C(=O)N[C@H](C(=O)N[C@@H](Cc1ccccc1)C(=O)N[C@]1(C)CCCCCCC=CCCC[C@@](C)(C(=O)N[C@@H](C)C(=O)N[C@@H](C)C(=O)N[C@@H](C)C(=O)N[C@@H](C)C(=O)N[C@H](C)C(N)=O)NC(=O)[C@H](CC(C)C)NC(=O)[C@H](CCC(N)=O)NC(=O)[C@H](C)NC(=O)[C@H](Cc2c[nH]c3ccccc23)NC(=O)[C@H](Cc2ccc(O)cc2)NC(=O)[C@H](C)NC1=O)[C@@H](C)O
recordedMeasurement: −19032.6 deg cm^2 dmol^−1
